# Ratio Ki listing for each entry below
# measurement target: Adenosine receptors; A1 & A3 (Homo sapiens) (UniProt P30542+P0DMS8)
# Sequence (P0DMS8 whole entry, looked up): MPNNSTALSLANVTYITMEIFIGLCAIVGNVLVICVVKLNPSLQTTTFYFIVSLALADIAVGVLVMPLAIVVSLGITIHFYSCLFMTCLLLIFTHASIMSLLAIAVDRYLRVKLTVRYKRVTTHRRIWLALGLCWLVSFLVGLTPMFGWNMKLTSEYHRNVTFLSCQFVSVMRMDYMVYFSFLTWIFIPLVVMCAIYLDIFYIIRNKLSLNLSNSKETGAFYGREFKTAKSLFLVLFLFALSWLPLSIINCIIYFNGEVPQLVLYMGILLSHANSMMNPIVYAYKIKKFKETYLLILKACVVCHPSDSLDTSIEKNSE
# Sequence (P30542 whole entry, looked up): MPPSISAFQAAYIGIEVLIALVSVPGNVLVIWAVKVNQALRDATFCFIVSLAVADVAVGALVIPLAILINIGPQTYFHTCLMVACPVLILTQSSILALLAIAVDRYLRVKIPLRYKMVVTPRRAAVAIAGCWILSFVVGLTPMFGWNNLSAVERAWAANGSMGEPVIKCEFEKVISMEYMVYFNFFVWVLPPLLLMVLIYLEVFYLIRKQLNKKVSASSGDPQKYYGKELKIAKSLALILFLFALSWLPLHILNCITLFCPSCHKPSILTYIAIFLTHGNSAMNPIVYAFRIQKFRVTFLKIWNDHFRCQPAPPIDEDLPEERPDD
# assay explanation: Selectivity ratio of Ki for human adenosine A1 receptor to Ki for human adenosine A3 receptor

Below, 2 compounds whose answers are already recorded.
O=C(c1ccccc1)N(C(=O)c1ccccc1)c1nc(Cl)c2cn(CCc3ccccc3)nc2n1: > 34.5
Cn1cc2c(Cl)nc(NC(=O)c3ccc(C(F)(F)F)cc3)nc2n1: > 2.9

Task item: So what does the record say about Ratio Ki for Cn1cc2c(Cl)nc(NC(=O)c3ccccc3)nc2n1 ?
Reply: > 4.2

====

# Species: Homo sapiens
# assay explanation: Selectivity ratio of Ki for human adenosine A2A receptor to Ki for human adenosine A3 receptor
# Ratio Ki listing for each entry below
Quick one: just the number, no unit, thanks!

O=C(Nc1nc(Cl)c2cn(CCc3ccccc3)nc2n1)c1ccccc1: 0.3

Task item: So what does the record say about Ratio Ki for Cn1cc2c(Cl)nc(NC(=O)c3ccc(F)cc3)nc2n1 ?
Reply: 0.6

Task item: So what does the record say about Ratio Ki for O=C(Nc1nc(Cl)c2cn(CCc3ccccc3)nc2n1)c1ccc(F)cc1 ?
Reply: 0.02

Task item: So what does the record say about Ratio Ki for Cn1cc2c(Cl)nc(NC(=O)c3ccccc3)nc2n1 ?
Reply: 1

Task item: So what does the record say about Ratio Ki for Cc1ccc(C(=O)Nc2nc(Cl)c3cn(CC(C)(C)C)nc3n2)cc1 ?
Reply: 0.4

Task item: So what does the record say about Ratio Ki for Cc1ccc(C(=O)Nc2nc(Cl)c3cn(C(C)C)nc3n2)cc1 ?
Reply: 0.01

Task item: So what does the record say about Ratio Ki for CC(C)(C)Cn1cc2c(Cl)nc(NC(=O)c3ccccc3)nc2n1 ?
Reply: 0.1

Task item: So what does the record say about Ratio Ki for CC(C)n1cc2c(Cl)nc(N(C(=O)c3ccccc3)C(=O)c3ccccc3)nc2n1 ?
Reply: 0.1

Task item: So what does the record say about Ratio Ki for O=C(Nc1nc(Cl)c2cn(CCc3ccccc3)nc2n1)c1ccc(C(F)(F)F)cc1 ?
Reply: 5.8

Task item: So what does the record say about Ratio Ki for O=C(c1ccccc1)N(C(=O)c1ccccc1)c1nc(Cl)c2cn(CCc3ccccc3)nc2n1 ?
Reply: 2

Task item: So what does the record say about Ratio Ki for Cc1ccc(C(=O)Nc2nc(Cl)c3cn(CCc4ccccc4)nc3n2)cc1 ?
Reply: 6.6

====

# measurement target: Adenosine receptor A2a (Homo sapiens, UniProt P29274)
# Sequence (P29274 whole entry): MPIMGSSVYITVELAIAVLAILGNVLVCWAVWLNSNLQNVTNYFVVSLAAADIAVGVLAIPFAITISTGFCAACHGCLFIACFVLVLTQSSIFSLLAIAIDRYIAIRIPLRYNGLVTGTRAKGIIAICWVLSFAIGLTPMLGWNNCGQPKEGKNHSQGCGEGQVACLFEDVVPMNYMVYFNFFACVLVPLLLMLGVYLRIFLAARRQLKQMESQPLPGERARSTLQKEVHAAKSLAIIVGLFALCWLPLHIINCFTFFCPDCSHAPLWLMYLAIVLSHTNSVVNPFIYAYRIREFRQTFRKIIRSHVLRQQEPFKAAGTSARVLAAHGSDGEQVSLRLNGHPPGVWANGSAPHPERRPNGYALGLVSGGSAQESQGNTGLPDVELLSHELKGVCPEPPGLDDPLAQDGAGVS
observable: Ki (µM)
Provide the reading as a plain figure in µM.

Below, 2 molecules whose answers are already recorded.
O=C(Nc1nc(Cl)c2cn(CCc3ccccc3)nc2n1)c1ccccc1: 3.1
O=C(Nc1nc(Cl)c2cn(CCc3ccccc3)nc2n1)c1ccc(C(F)(F)F)cc1: 16.4

Task item: # get_value(readout= Ki, system= Adenosine receptor A2a (Homo sapiens, UniProt P29274)) for Cn1cc2c(Cl)nc(NC(=O)c3ccc(C(F)(F)F)cc3)nc2n1
Reply: 25.6

====

# measurement target: Adenosine receptors; A1 & A3 (Homo sapiens) (UniProt P30542+P0DMS8)
# assay explanation: Selectivity ratio of Ki for human adenosine A1 receptor to Ki for human adenosine A3 receptor
# Ratio Ki listing for each entry below

Cc1ccc(C(=O)Nc2nc(Cl)c3cn(C)nc3n2)cc1: > 7.4
CCOC(=O)c1nc(NC(=O)c2ccc(C(F)(F)F)cc2)nc2nn(CC(C)(C)C)cc12: > 77
CC(C)(C)Cn1cc2c(Cl)nc(N(C(=O)c3ccccc3)C(=O)c3ccccc3)nc2n1: > 15.3

Task item: So what does the record say about Ratio Ki for CC(C)(C)Cn1cc2c(Cl)nc(NC(=O)c3ccc(C(F)(F)F)cc3)nc2n1 ?
Reply: > 15

Task item: So what does the record say about Ratio Ki for Cn1cc2c(Cl)nc(N(C(=O)c3ccccc3)C(=O)c3ccccc3)nc2n1 ?
Reply: > 8.4
